Test system: HOP-62
experimentSummary: NCI tumour cell line growth inhibition, 48 h
Calls of active or inactive are those of the source. Cut-off read from the data, not from the text of the source: active = GI50 up to about 1.1 µM and inactive = higher. Where a SMILES comes first, the peptide text is derived from it. Bridges are numbered along the chain shown (N, C = ends). The star is where a group is joined. Cbz = O=C(OCc1ccccc1)*
Parameter call: string, one of 1 (yes) for active, 0 (no) for inactive

compound	cat
COc1ccc2c3c(coc13)C(CCC(=O)O)CC2 (stereo not given)	0 (no)
N=C(N)NNC(=O)CCCCCCCC(=O)NNC(=N)N	0 (no)
CCCC(=O)NC1CCc2cc(OC)c(OC)c(OC)c2-c2ccc(OC)c(=O)cc21 (stereo not given)	1 (yes)

Please share the test call associated with COC(=O)C1CCCCNC(=O)CCC(NC(=O)OCc2ccccc2)C(=O)N1 (stereo not drawn) (Cbz-Glu-Lys-OMe; lactam 1-2; configuration not given here) . 0 (no)

Please share the test call associated with OC(c1cc2ccccc2[nH]1)C1(c2cccnc2)SCCCS1 (stereo not given) . 0 (no)

Please share the test call associated with "CCOC(=O)/C(=C\c1ccccc1)C(=O)O" . 0 (no)

Please share the test call associated with "O=C1/C(=C/c2ccc(O)c(O)c2)CC/C1=C\c1ccc(O)c(O)c1" . 0 (no)

----------
Test system: COLO 205
experimentSummary: NCI tumour cell line growth inhibition, 48 h
Active and inactive are the calls of the source. No stated cut-off is given here; in the data, active = GI50 up to about 1.1 µM and inactive = higher.
GI50 reference

Fill in: GI50 of COCCCNC(=O)C1C(=O)C(=O)N(CCCOC)C1=O (stereo not drawn) is ___ > 100 µM (inactive)

Fill in: GI50 of "CO[C@@]12C[C@@H](CNC(=O)c3cc(Br)c[nH]3)O[C@@H]1NC(=O)N2" is ___ > 100 µM (inactive)

Fill in: GI50 of CC(=O)NC1C(Sc2ncn(C3OC(CO)C(O)C(O)C3NC(C)=O)n2)OC(CO)C(O)C1O (stereo not drawn) is ___ > 100 µM (inactive)

Fill in: GI50 of "CCn1sc2ccccc2c1=O" is ___ 9.55 µM (inactive)

Fill in: GI50 of [O-][S+](Nc1ccccc1)c1ccc(Cl)cc1 (stereo not drawn) is ___ > 100 µM (inactive)

Fill in: GI50 of CC(O)C1(CNc2cc(Cl)nc(N)n2)CC(CCc2ccccc2)C1 (stereo not drawn) is ___ 15.5 µM (inactive)

Fill in: GI50 of "CCOC(=O)/C(=C\c1ccccc1)C(=O)O" is ___ > 100 µM (inactive)

Fill in: GI50 of "COc1cc2c(cc1OC)-c1cc3cc(OC)c(OC)cc3n1CC2" is ___ 32.4 µM (inactive)

Fill in: GI50 of CN(C(=O)C12C3(C(=O)O)C4C5(C(=O)O)C3C1(C(=O)O)C5C42C(=O)O)C(C)(C)C (stereo not drawn) is ___ > 100 µM (inactive)

Fill in: GI50 of "CCOC(=O)C(=CNC(=S)N/N=C1\C(=O)Nc2ccccc21)C(=O)OCC" is ___ 99.1 µM (inactive)

Fill in: GI50 of COc1ccc2c3c(coc13)C(CCC(=O)O)CC2 (stereo not drawn) is ___ > 100 µM (inactive)

Fill in: GI50 of "CN1c2ccccc2C(=O)NC12CCN(Cc1ccccc1)CC2" is ___ 35.4 µM (inactive)

Fill in: GI50 of Cc1ccc2c(c1)C=CC(C#N)N2C(=O)Oc1ccccc1 (stereo not drawn) is ___ 25.9 µM (inactive)

Fill in: GI50 of "O=[N+]([O-])C(=C1NCCN1)/C(Cl)=C(\Cl)Br" is ___ 19.6 µM (inactive)
